Record set of EC50 for target or system fMet-Leu-Phe receptor (Homo sapiens, UniProt P21462).
test.readout: EC50 (nM)

See these solved cases before continuing.
compound: COc1cc(F)c(-n2cc(C3CNC3)nc2NC(=O)c2ccc(OC(F)F)cc2)c(F)c1
tested.on: fMet-Leu-Phe receptor (Homo sapiens, UniProt P21462)
Sequence (P21462 whole entry): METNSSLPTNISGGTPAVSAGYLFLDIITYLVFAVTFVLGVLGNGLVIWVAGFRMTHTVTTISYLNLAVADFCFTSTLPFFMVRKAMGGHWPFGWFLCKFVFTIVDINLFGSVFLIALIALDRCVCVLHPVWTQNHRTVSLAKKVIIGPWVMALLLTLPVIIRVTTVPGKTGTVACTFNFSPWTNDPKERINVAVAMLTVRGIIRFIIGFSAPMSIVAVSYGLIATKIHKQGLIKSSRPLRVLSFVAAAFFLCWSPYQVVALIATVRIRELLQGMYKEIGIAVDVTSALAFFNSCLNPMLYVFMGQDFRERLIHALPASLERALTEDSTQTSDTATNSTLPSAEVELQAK
EC50, nM: 81
--
compound: COc1cccc(-c2cn(-c3c(F)cc(OC)cc3F)c(NC(=O)c3ccc(OC(F)F)cc3)n2)c1
tested.on: fMet-Leu-Phe receptor (Homo sapiens, UniProt P21462)
EC50, nM: 8
--
compound: COc1ccc(-n2cc(-c3ccnc(Cl)c3)nc2NC(=O)c2ccc(OC(F)F)cc2)cc1
tested.on: fMet-Leu-Phe receptor (Homo sapiens, UniProt P21462)
EC50, nM: 5
--
compound: COc1cc(F)c(-n2cc(C(=O)N3CCC[C@H]3CO)nc2NC(=O)c2ccc(OC(F)F)cc2)c(F)c1
tested.on: fMet-Leu-Phe receptor (Homo sapiens, UniProt P21462)
EC50, nM: 77
--
compound: COc1cc(F)c(-n2cc(-c3ccc(OC(F)F)cc3)nc2NC(=O)c2ccc(OC(F)F)cc2)c(F)c1
tested.on: fMet-Leu-Phe receptor (Homo sapiens, UniProt P21462)
EC50, nM: 33
--
compound: COc1ccc(-n2cc(-c3ccccn3)nc2NC(=O)c2ccc(OC(F)F)cc2)cc1
tested.on: fMet-Leu-Phe receptor (Homo sapiens, UniProt P21462)
EC50, nM: 700
--
compound: CCS(=O)(=O)N1CCC(c2cn(-c3c(F)cc(OC)cc3F)c(NC(=O)c3ccc(OC(F)F)cc3)n2)CC1
tested.on: fMet-Leu-Phe receptor (Homo sapiens, UniProt P21462)
EC50, nM: 81
--
compound: COc1cc(F)c(-n2cc(-c3cccc(C#N)c3)nc2NC(=O)c2ccc(OC(F)F)cc2)c(F)c1
tested.on: fMet-Leu-Phe receptor (Homo sapiens, UniProt P21462)
EC50, nM: 5

1: COc1cc(F)c(-n2cc(C3CC(NS(C)(=O)=O)C3)nc2NC(=O)c2ccc(OC(F)F)cc2)c(F)c1 (stereo not drawn)
2: COc1cc(F)c(-n2cc(C3CCOCC3)nc2NC(=O)c2ccc(OC(F)F)cc2)c(F)c1
Q: Between the two listed entries 1 and 2 , which has its EC50 at the higher number? Indicate your choice by writing its label.
Result: 2

###

target: fMet-Leu-Phe receptor (Homo sapiens, UniProt P21462)
pEC50: −log10 of the molar value.
test.readout: pEC50

See these solved cases before continuing.
compound.smiles: COc1cc(F)c(-n2cc(C(=O)N3CCC(O)CC3)nc2NC(=O)c2ccc(OC(F)F)cc2)c(F)c1
pEC50: 7.20

compound.smiles: COc1cc(F)c(-n2cc(Cc3ccccn3)nc2NC(=O)c2ccc(OC(F)F)cc2)c(F)c1
pEC50: 7.25

I: COc1cc(F)c(-n2cc(-c3ccc(F)cc3)nc2NC(=O)c2ccc(OC(F)F)cc2)c(F)c1
II: COc1cc(F)c(-n2cc(C(F)(F)C(F)(F)F)nc2NC(=O)c2ccc(OC(F)F)cc2)c(F)c1
III: COc1cc(F)c(-n2cc(C(=O)NCc3cnc(C)cn3)nc2NC(=O)c2ccc(OC(F)F)cc2)c(F)c1
IV: CCOC(=O)Cc1cn(-c2c(F)cc(OC)cc2F)c(NC(=O)c2ccc(OC(F)F)cc2)n1
Q: Exam item: list the entries in increasing order of pEC50. Answer with the labels in sequence, matching the requested order.
Result: III, II, IV, I
